Documented inhibition at 1 µM across a set of compounds
target: human recombinant histamine H1 receptor (Homo sapiens, UniProt P35367)
Construct: expressed in transfected cells; host or cells: CHO cells
Sequence (P35367 whole entry): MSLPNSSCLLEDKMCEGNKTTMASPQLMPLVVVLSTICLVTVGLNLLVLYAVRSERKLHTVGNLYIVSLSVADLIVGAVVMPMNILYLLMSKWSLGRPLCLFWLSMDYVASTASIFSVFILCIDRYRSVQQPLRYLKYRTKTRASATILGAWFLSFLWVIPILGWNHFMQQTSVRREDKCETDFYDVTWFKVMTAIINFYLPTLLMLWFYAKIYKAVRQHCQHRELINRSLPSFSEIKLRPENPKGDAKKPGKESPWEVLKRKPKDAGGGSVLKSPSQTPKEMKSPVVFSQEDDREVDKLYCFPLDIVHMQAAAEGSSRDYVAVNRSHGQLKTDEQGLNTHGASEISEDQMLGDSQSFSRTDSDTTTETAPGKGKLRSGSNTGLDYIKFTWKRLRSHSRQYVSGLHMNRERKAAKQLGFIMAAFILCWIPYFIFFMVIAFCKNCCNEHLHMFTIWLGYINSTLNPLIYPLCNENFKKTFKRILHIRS
measurementDescription: Histamine H1 radioligand binding ([3H]Pyrilamine)
runConditions: compound at 1 μM; read-out: Histamine Binding (1 μM) H1, percent inhibition of specific binding
Answer with a number only, understood to be in %.

Examples from the recorded data:
C/C(=C\n1c2c(c3cc(Cl)ccc31)CCN(C)CC2)c1ccc(F)c(F)c1; 93
Cc1ccc2c(c1)c1c(n2CC(=O)NC2CCCCC2)CCN(C)CC1; 12
COc1ccc(C#Cn2c3c(c4cc(C)ccc42)CCN(C)CC3)cc1F; 11
C/C(=C\n1c2c(c3cc(Cl)ccc31)CCN(C)CC2)c1ccncc1; 88
C=C(Cn1c2c(c3cc(Cl)ccc31)CCN(C)CC2)c1ccc(Cl)cc1; 100

Task: # get_value(readout='inhibition at 1 µM', item= Cc1ccc2c(c1)c1c(n2CC(O)c2ccccc2F)CCN(C)CC1 (centres unmarked) )
Output: 100

Task: Looking for the measured inhibition at 1 µM of Cc1ccc2c(c1)c1c(n2CCc2ccccc2Cl)CCN(C)CC1 , can you help?
Output: 2

Task: Could you tell me which inhibition at 1 µM is on file for C/C(=C\n1c2c(c3cc(Cl)ccc31)CCN(C)CC2)c1cccc(F)c1 ?
Output: 93

Task: Please report the recorded inhibition at 1 µM for C/C(=C\n1c2c(c3cc(Cl)ccc31)CCN(C)CC2)c1ccc(F)cc1 .
Output: 93

Task: Fill blank: measured inhibition at 1 µM of the compound CN1CCc2c(n(CCc3ccncc3)c3ccc(Cl)cc23)CC1 is ____.
Output: 100

Task: For the compound Cc1cncc(CCn2c3c(c4cc(Cl)ccc42)CCN(C)CC3)c1 , what inhibition at 1 µM is on record?
Output: 102
